For each entry below, report its IC50 value.
target: Aurora kinase B (Homo sapiens, UniProt Q96GD4)
Sequence (Q96GD4 whole entry): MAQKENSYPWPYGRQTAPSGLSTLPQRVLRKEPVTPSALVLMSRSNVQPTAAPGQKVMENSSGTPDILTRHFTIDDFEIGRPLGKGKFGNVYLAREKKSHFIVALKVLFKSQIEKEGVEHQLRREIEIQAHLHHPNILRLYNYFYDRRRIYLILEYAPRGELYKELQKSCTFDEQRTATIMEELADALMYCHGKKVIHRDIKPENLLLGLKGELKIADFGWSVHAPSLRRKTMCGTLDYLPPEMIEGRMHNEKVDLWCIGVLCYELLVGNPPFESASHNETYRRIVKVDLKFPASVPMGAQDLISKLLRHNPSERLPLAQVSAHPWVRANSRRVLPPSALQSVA

// below: answered molecules
- CPD_SMILES: "CNC(=O)c1cc(Nc2ccc(-c3nc4ccccc4s3)cc2)ccn1"
  MEASURED_ENDPOINT: "IC50"
  MEASURED_VALUE: "> 10 µM"
- CPD_SMILES: "c1ccc2sc(-c3ccc(Nc4ncnc5[nH]ccc45)cc3)nc2c1"
  MEASURED_ENDPOINT: "IC50"
  MEASURED_VALUE: "> 10 µM"

Now let's try a different one.
Supply recorded IC50 for CNc1cc(Nc2ccc(-c3nc4ccccc4s3)cc2)ccn1 here.
> 10 µM

---

The following molecules have recorded IC50 on Angiopoietin-1 receptor (Homo sapiens, UniProt Q02763).
Sequence (Q02763 whole entry): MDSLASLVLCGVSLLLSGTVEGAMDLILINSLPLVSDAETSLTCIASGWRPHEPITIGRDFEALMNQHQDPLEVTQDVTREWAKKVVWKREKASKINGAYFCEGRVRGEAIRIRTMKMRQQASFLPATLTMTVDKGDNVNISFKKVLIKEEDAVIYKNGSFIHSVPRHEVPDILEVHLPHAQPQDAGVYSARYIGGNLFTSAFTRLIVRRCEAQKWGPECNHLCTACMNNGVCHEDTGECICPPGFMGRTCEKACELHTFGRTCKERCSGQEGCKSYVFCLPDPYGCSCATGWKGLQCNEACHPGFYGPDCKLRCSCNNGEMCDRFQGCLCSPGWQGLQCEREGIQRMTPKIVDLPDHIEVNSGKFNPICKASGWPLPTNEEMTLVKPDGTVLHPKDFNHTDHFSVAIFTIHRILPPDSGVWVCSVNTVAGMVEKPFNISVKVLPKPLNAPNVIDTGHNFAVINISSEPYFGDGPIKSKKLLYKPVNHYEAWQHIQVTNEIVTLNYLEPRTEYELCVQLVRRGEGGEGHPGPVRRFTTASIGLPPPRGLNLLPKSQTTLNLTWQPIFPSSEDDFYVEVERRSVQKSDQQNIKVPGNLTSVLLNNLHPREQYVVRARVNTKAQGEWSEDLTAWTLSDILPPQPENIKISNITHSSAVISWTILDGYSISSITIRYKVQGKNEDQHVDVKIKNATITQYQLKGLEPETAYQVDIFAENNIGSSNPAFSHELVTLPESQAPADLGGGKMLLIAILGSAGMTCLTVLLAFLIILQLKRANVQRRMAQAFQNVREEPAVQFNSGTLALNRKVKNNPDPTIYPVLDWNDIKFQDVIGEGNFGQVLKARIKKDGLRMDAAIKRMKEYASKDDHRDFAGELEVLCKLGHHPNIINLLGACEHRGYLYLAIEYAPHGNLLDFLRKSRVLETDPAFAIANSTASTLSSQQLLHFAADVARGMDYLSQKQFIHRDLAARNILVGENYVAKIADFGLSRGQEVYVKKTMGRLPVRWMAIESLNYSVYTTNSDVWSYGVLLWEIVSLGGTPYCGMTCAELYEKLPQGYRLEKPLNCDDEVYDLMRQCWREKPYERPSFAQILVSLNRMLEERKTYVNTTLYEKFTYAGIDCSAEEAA

// below: answered molecules
- CPD_SMILES: "COc1cc(Nc2ncnc3ccsc23)ccc1-c1nc2ccccc2s1"
  IC50: "> 10 µM"
- CPD_SMILES: "Cc1cc(Nc2ccnc(Nc3cccc(-c4nc5ccccc5s4)c3)n2)n[nH]1"
  IC50: "> 10 µM"

Now let's try a different one.
Supply recorded IC50 for c1ccc2sc(-c3ccc(Nc4ncnc5ccsc45)cc3)nc2c1 here.
> 10 µM

---

The following compounds have recorded pIC50 on Receptor tyrosine-protein kinase erbB-2 (Homo sapiens, UniProt P04626).
Sequence (P04626 whole entry): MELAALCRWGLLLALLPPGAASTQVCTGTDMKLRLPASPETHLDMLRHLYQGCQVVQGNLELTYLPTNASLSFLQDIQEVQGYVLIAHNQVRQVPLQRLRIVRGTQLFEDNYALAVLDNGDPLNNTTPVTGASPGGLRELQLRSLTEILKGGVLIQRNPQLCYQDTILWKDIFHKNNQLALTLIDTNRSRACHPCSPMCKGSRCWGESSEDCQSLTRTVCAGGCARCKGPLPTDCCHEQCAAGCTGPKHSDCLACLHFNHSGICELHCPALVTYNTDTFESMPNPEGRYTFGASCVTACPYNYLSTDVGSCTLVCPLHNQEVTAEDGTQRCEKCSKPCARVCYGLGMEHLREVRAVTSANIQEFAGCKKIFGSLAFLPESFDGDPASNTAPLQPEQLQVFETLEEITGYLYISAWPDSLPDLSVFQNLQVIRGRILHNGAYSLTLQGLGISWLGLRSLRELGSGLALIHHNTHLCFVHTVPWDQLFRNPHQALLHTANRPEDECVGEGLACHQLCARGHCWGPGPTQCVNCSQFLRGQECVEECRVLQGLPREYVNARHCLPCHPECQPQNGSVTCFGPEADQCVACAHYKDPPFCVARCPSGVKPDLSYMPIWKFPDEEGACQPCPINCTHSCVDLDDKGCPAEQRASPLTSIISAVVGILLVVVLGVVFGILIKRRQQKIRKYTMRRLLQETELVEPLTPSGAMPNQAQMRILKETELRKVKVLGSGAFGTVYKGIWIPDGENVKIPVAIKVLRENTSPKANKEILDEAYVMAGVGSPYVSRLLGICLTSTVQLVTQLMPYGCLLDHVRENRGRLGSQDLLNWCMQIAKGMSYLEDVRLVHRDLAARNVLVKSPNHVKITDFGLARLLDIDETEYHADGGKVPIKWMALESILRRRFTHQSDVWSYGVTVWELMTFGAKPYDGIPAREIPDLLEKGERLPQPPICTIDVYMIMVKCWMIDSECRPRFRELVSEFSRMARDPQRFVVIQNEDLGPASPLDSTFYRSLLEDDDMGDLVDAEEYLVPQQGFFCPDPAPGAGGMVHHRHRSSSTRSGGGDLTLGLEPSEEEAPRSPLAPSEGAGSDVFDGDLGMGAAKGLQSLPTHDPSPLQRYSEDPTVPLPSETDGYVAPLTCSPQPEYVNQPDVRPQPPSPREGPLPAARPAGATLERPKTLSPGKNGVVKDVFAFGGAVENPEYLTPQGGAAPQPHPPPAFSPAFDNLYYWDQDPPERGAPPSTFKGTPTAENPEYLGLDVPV
One number for each entry, as −log10 of the molar value.

- CPD_SMILES: "CNC(=O)c1cc(Nc2ccc(-c3nc4ccccc4s3)cc2)ccn1"
  pIC50: 5.96

Supply recorded pIC50 for COc1cc(Nc2ncnc3[nH]ccc23)ccc1-c1nc2ccccc2s1 here.
5.80

---

Target sequence: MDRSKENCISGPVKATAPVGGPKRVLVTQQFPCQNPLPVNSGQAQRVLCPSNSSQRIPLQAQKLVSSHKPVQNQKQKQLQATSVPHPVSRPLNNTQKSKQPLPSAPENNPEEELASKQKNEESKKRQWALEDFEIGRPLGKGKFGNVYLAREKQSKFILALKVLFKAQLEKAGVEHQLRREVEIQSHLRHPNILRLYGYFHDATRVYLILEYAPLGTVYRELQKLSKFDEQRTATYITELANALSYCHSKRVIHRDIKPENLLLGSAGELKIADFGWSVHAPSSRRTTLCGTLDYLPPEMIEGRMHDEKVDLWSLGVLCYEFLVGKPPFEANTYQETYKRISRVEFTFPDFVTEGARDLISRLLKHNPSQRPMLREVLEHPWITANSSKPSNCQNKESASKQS
MEASURED_ENDPOINT: IC50

// below: answered molecules
- CPD_SMILES: "COc1cc2nc(Nc3cc(C)n[nH]3)nc(Nc3ccc(-c4nc5ccccc5s4)cc3)c2cc1OC"
  IC50: "6 µM"
- CPD_SMILES: "COc1cc2ncnc(Nc3ccc(-c4nc5ccccc5s4)c(O)c3)c2cc1OC"
  IC50: "> 10 µM"
- CPD_SMILES: "c1cc(Nc2ncnc3nc[nH]c23)cc(-c2nc3ccccc3s2)c1"
  IC50: "> 10 µM"
- CPD_SMILES: "c1cc(Nc2ncnc3[nH]ccc23)cc(-c2nc3ccccc3s2)c1"
  IC50: "> 10 µM"
- CPD_SMILES: "COc1cc(Nc2ccnc3cc(Cl)ccc23)ccc1-c1nc2ccccc2s1"
  IC50: "> 10 µM"

Now let's try a different one.
Supply recorded IC50 for CNc1nc(Nc2ccc(-c3nc4ccccc4s3)cc2)c2cc(OC)c(OC)cc2n1 here.
> 10 µM

---

biological target: Proto-oncogene tyrosine-protein kinase Src (Homo sapiens); assay: Inhibition of Src by virtual HTS assay
Sequence (P12931 2-536 limits assumed): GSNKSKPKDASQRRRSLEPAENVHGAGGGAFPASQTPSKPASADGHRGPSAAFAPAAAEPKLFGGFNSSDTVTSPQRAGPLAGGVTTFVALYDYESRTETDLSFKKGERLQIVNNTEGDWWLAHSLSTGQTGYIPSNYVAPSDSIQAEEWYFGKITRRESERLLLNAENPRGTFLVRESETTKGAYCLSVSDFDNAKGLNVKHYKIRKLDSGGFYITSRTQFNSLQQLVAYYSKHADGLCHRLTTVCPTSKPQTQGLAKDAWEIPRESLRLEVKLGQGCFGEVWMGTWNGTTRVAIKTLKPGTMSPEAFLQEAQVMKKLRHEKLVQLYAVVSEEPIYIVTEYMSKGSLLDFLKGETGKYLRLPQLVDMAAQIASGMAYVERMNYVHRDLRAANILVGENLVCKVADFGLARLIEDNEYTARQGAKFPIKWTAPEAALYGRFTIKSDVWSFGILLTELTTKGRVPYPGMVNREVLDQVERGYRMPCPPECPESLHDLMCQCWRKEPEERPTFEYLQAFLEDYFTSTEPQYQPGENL
For each entry below, report its IC50 value.
Numbers only, in nM.

// input: 3 compounds below; output: IC50 for each
1. c1cc(Nc2ncnc3nc[nH]c23)cc(-c2nc3ccccc3s2)c1
2. O=C(NC(=S)Nc1ccc(O)c(-c2nc3ccccc3s2)c1)c1ccc([N+](=O)[O-])cc1
3. Cc1cc2c(Nc3ccc(-c4nc5ccccc5s4)cc3)ncnc2cc1Cl

1100
190
300

Value source: ChEMBL document CHEMBL1153282
